// values below are reported GI50
System: UACC-257
Assay: NCI tumour cell line growth inhibition, 48 h
The source made the active and inactive calls. Rule as the data show it: active = GI50 up to about 1.1 µM and inactive = higher.
recorded.endpoint: GI50

{"compound": "CCCCCCC(=O)OC[n+]1ccc2c(C)c3[nH]c4ccccc4c3c(C)c2c1", "target.or.system": "UACC-257", "measurement": "1.79 µM (inactive)"}
{"compound": "CCOC(=O)C(=C=C=C(c1ccccc1)c1ccccc1)C(=O)OCC", "target.or.system": "UACC-257", "measurement": "16.8 µM (inactive)"}
{"compound": "C=COC(=O)N1C2CCCC(Cl)(C(C)=O)C1CC2 (stereo not drawn)", "target.or.system": "UACC-257", "measurement": "> 100 µM (inactive)"}
{"compound": "O=S1(=O)N=C(SCc2c[nH]c3ccccc23)N(c2ccccc2)c2ccncc21", "target.or.system": "UACC-257", "measurement": "> 100 µM (inactive)"}
{"compound": "CN(CC(N)=O)C(=O)N(CCCl)N=O", "target.or.system": "UACC-257", "measurement": "> 100 µM (inactive)"}
{"compound": "Cc1cc2c(cc1C)C(=O)C1(C2)Cc2c(C)ccc(C)c2C1=O (stereo not drawn)", "target.or.system": "UACC-257", "measurement": "> 100 µM (inactive)"}
{"compound": "N/N=c1/nc2n(c3ncccc13)C=CNN2", "target.or.system": "UACC-257", "measurement": "> 100 µM (inactive)"}
{"compound": "CC1CC(C(=O)OC2OC(COC3OC(CO)C(OC4OC(C)C(O)C(O)C4O)C(O)C3O)C(O)C(O)C2O)C2CCC3(C)C(=CCC4(C)C3CCC3C(C)(CO)C(O)C(O)CC34C)C2C1C (stereo not drawn)", "target.or.system": "UACC-257", "measurement": "> 10 µM (inactive)"}
{"compound": "CCn1c(=O)c2c3cc(OC(C)=O)ccc3oc2c2ccc(OC(C)=O)cc21", "target.or.system": "UACC-257", "measurement": "55.1 µM (inactive)"}
{"compound": "FC(F)(F)C1(Cl)C(Cl)(c2ccccc2)C1(Cl)c1ccccc1 (stereo not drawn)", "target.or.system": "UACC-257", "measurement": "14.6 µM (inactive)"}
{"compound": "CCN(CC)CCC(=O)Nc1ccc2c(c1)C(=O)c1ccc(NC(=O)CCN(CC)CC)cc1C2=O", "target.or.system": "UACC-257", "measurement": "14.8 µM (inactive)"}
{"compound": "O=C(Cc1csc(-c2nc(CC(=O)NNc3ccccc3)cs2)n1)NNc1ccccc1", "target.or.system": "UACC-257", "measurement": "> 100 µM (inactive)"}
{"compound": "CC(=O)O[C@H]1C=CC(=O)C(C)CC1C (stereo partly drawn)", "target.or.system": "UACC-257", "measurement": "> 100 µM (inactive)"}
{"compound": "CC(C)CC(=O)NC(Nc1ccc(S(=O)(=O)Nc2ncccn2)cc1)(C(F)(F)F)C(F)(F)F", "target.or.system": "UACC-257", "measurement": "> 100 µM (inactive)"}
{"compound": "CC(=O)NC1=C(C)C(=O)c2c(nc3n2CC[C@H]3OC(C)=O)C1=O", "target.or.system": "UACC-257", "measurement": "1.01 µM (active)"}
{"compound": "C/C(CCn1[nH]c(=O)ccc1=O)=N\\O", "target.or.system": "UACC-257", "measurement": "> 100 µM (inactive)"}
{"compound": "CCCCS(=O)(=O)Nc1ccc(Nc2c3ccccc3nc3ccccc23)c(OC)c1", "target.or.system": "UACC-257", "measurement": "6 µM (inactive)"}
{"compound": "C=C1c2nc3ccccc3n2C=C(c2ccc(OC)cc2)N1c1ccc(OCCN2CCOCC2)cc1", "target.or.system": "UACC-257", "measurement": "7.13 µM (inactive)"}

====

Test system: HOP-92
Experiment: NCI tumour cell line growth inhibition, 48 h
Activity calls are given as the source filed them. Rule as the data show it: active = GI50 up to about 1.1 µM and inactive = higher.
Property: GI50; scope: individual compounds

{"compound": "Cc1ccc(S(=O)(=O)N/N=C\\c2c3ccccc3[n+](C)c3ccccc23)cc1", "GI50": "17.1 µM (inactive)"}
{"compound": "O=C1/C(=C\\c2ccc(Br)cc2)CCCc2ccccc21", "GI50": "19.1 µM (inactive)"}
{"compound": "CC1=C(C(=O)Nc2ccc(Cl)c(Cl)c2)C(c2ccc([N+](=O)[O-])cc2)C(C(=O)Nc2ccc(Cl)c(Cl)c2)=C(C)N1", "GI50": "2.4 µM (inactive)"}
{"compound": "CC(=O)c1cc2c3c(c1)c1cc4c(cc1c(=O)n3CC2)OCO4", "GI50": "54.8 µM (inactive)"}
{"compound": "CCC(CC)C(=O)OC[n+]1ccc(-c2c(COC(=O)NC(C)C)c(COC(=O)NC(C)C)c3n2CCC3)cc1", "GI50": "> 100 µM (inactive)"}
{"compound": "O=C1c2cc3c(cc2CC12Cc1cc4c(cc1C2)CCC4)CCC3", "GI50": "> 100 µM (inactive)"}
{"compound": "Cc1c2c(n3c(nc4ccccc43)c1C#N)SCC2", "GI50": "> 10 µM (inactive)"}
{"compound": "CC(C)[C@@H]1C=C(c2ccccc2)c2ccccc2C1C(C#N)(C#N)C(C)C (stereo not given in full)", "GI50": "> 100 µM (inactive)"}
{"compound": "Cc1c(F)c(N)c2c(=O)cc(-c3ccc(NC(=O)[C@@H](N)CCCCN)c(F)c3)oc2c1F", "GI50": "26.7 µM (inactive)"}
{"compound": "CSc1nc(NCc2ccccc2)c2cnn(COCCO)c2n1", "GI50": "18.2 µM (inactive)"}

====

System: HCT-116
Test: NCI tumour cell line growth inhibition, 48 h
Calls of active or inactive are those of the source. Cut-off read from the data, not from the text of the source: active = GI50 up to about 1.1 µM and inactive = higher.

{"molecule": "N=C1/C(=C/c2ccc(F)cc2)C(=O)N=C2SC=NN12", "GI50": "> 100 µM (inactive)"}
{"molecule": "CC1CC(NN)=Nc2ccccc2N1 (stereo not drawn)", "GI50": "> 100 µM (inactive)"}
{"molecule": "COc1cccc2cc(C)c(C(=O)c3ccccc3)nc12", "GI50": "> 100 µM (inactive)"}
{"molecule": "CCOC1=NC(=O)CC(c2ccccc2)S1 (stereo not drawn)", "GI50": "> 100 µM (inactive)"}
{"molecule": "CCC(C)(O)c1cn(-c2ccc(Cl)cc2)nn1 (stereo not drawn)", "GI50": "> 100 µM (inactive)"}
{"molecule": "COC(=O)C1C2C=CC(C2)C1(C(=O)OC)[S+]([O-])CC12CCC(CC1O)C2(C)C (stereo not drawn)", "GI50": "> 100 µM (inactive)"}
{"molecule": "C/C(CN1C(=O)c2ccccc2C1=O)=N\\NS(=O)(=O)c1ccc(Cl)cc1", "GI50": "> 100 µM (inactive)"}
{"molecule": "CC(C)[C@@H]1C=C(c2ccccc2)c2ccccc2C1C(C#N)(C#N)C(C)C (stereo partly drawn)", "GI50": "32.9 µM (inactive)"}
{"molecule": "Cc1nn(C(=O)c2ccccc2O)c2c1C(c1ccccc1O)SC(=N)N2 (stereo not drawn)", "GI50": "4.12 µM (inactive)"}
{"molecule": "O=C(CCN1CCN2c3ccccc3CCC2C1)c1ccc(F)cc1 (stereo not drawn)", "GI50": "37.5 µM (inactive)"}
{"molecule": "CC(C)OP(=O)(OC(C)C)C(C(C)C)N(C)/C(N)=N/C#N (stereo not drawn)", "GI50": "> 100 µM (inactive)"}
{"molecule": "CC(=O)NC1CC2Oc3ccc(C)cc3C(C)(O2)C1O (stereo not drawn)", "GI50": "> 100 µM (inactive)"}
{"molecule": "CCC(=O)NCC1(c2c[nH]c3ccccc23)SCCS1", "GI50": "48.1 µM (inactive)"}
{"molecule": "O=C(Cc1csc(-c2nc(CC(=O)NNc3ccccc3)cs2)n1)NNc1ccccc1", "GI50": "77.1 µM (inactive)"}
{"molecule": "COc1ccc(/C(Cl)=C(\\C=O)c2ccc(Cl)c(Cl)c2)cc1", "GI50": "3.83 µM (inactive)"}
{"molecule": "COc1ccc(C(C2=C(O)COC2=O)c2cc3c(cc2O)OCO3)cc1OC (stereo not drawn)", "GI50": "> 100 µM (inactive)"}
{"molecule": "COc1ccccc1CC(C)N (stereo not drawn)", "GI50": "> 100 µM (inactive)"}
{"molecule": "COc1cccc(C2c3cc4c(cc3OC(N3CCCCC3)C2C)OCO4)c1O (stereo not drawn)", "GI50": "4.89 µM (inactive)"}
{"molecule": "Cc1cc(O)c2c(c1)C(=O)c1c(c(O)cc(O)c1-c1c(O)cc(O)c3c1C(=O)c1cc(C)cc(O)c1C3=O)C2=O", "GI50": "8.99 µM (inactive)"}
{"molecule": "CCN(CC)CC1CCCCCCCCCCC1=O (stereo not drawn)", "GI50": "> 100 µM (inactive)"}
{"molecule": "O=C1CCCSC(=O)N1Cc1ccccc1", "GI50": "> 100 µM (inactive)"}
{"molecule": "O=C(C/C=C/c1ccccc1)c1ccccc1", "GI50": "17.4 µM (inactive)"}
{"molecule": "C=C1C(=O)OC2C1C(OC(=O)/C(C)=C/C)CC(O)(CCl)C1C(OC(C)=O)C=C(C)C21O (stereo not drawn)", "GI50": "7.5 µM (inactive)"}

Cited source: ChEMBL document CHEMBL1201862
